tested on: KM12; test: NCI tumour cell line growth inhibition, 48 h
Activity calls are given as the source filed them. No stated cut-off is given here; in the data, active = GI50 up to about 1.1 µM and inactive = higher.
Recorded measurements of GI50, one per entry

A selection of reference data follows.
Compound: [N-]=[N+]=NC1(Cc2ccccc2)C(=O)Nc2ccccc2C1=O (stereo not given)
Result: > 100 µM (inactive)
--
Compound: COc1cc(NC(C)=O)ccc1C(=O)N/N=C/c1ccc(Cl)cc1Cl
Result: 33 µM (inactive)
--
Compound: O[C@H]1[C@H](O)[C@H](O)CN2CCC[C@@H](O)[C@H]12
Result: > 100 µM (inactive)
--
Compound: CCOC(=O)C1(C(=O)OCC)Nc2cccnc2N(C)N1
Result: 50.1 µM (inactive)
--
Compound: C/C(O)=C/C(=O)c1[nH]c(C(=O)O)cc1C1CCN(Cc2ccccc2)C1=O (stereo not given)
Result: 29.9 µM (inactive)

We now examine a further compound.
input: Quote GI50 reported for COc1cc([N+](=O)[O-])c(S(=O)(=O)O)cc1-n1nc(C(=O)Nc2ccccc2)n[n+]1-c1cc(S(=O)(=O)[O-])c([N+](=O)[O-])cc1OC please.
output: > 100 µM (inactive)

###

test system: KM12; assay: NCI tumour cell line growth inhibition, 48 h
Active and inactive are the calls of the source. No stated cut-off is given here; in the data, active = GI50 up to about 1.1 µM and inactive = higher. Where a SMILES comes first, the peptide text is derived from it.
Your response should consist of one outcome taken from active, inactive

Previously resolved entries follow.
Compound: CCOP(=O)(CN1CCNCCN(CP(=O)(OCC)OCC)CC1)OCC
Experimental System: KM12
Label: inactive
--
Compound: O=[N+]([O-])c1ccc2c3c1[C@@H]1O[C@@H]1c1cccc(c1-3)[C@@H]1O[C@H]21
Experimental System: KM12
Label: inactive
--
Compound: O=C(/C=C/c1ccc(Cl)cc1)c1ccc(Cl)c(Cl)c1
Experimental System: KM12
Label: inactive
--
Compound: CCOC(=O)C(SCCO)C(C(=O)OCC)n1cnc2c(N)ncnc21 (stereo not given)
Experimental System: KM12
Label: inactive
--
Compound: Cc1ccc(C2=NN=C3C(c4ccccc4)=Nc4ccccc4N3C2)cc1
Experimental System: KM12
Label: inactive
--
Compound: COC(=O)C1=CC2C(=O)OC1CC2C#N (stereo not given)
Experimental System: KM12
Label: inactive
--
Compound: CC(C)CC(NC(=O)C(Cc1ccccc1)NC(=O)C(Cc1c[nH]c2ccccc12)NC(=O)CNC(=O)C(N)Cc1ccc(O)cc1)C(=O)O (stereo not given) (H-YGWFL-OH; configuration not given here)
Experimental System: KM12
Label: inactive
--
Compound: Nc1nc(N)c2nnn(C[C@H]3CC[C@@H](CO)C3)c2n1
Experimental System: KM12
Label: inactive
--
Compound: COc1cc(CCc2ccc(N)cc2)cc(OC)c1OC
Experimental System: KM12
Label: inactive
--
Compound: NNS(=O)(=O)c1cc(C(=O)O)cc(C(=O)O)c1
Experimental System: KM12
Label: inactive

Let's switch to this compound now.
input: Which result was noted for this compound in the test: COC(=O)c1c(C)cc2c(c1O)C1(O)C(=O)c3cc4c(c(O)c3C(=O)C1(OC)C(O)C2)C(=O)C=C(NC1OC(C)C(OC)C(O)C1OC)C4=O (stereo not given)
output: active

###

Recorded measurements of GI50, one per entry
tested on: HCC 2998; experiment: NCI tumour cell line growth inhibition, 48 h
Calls of active or inactive are those of the source. Cut-off read from the data, not from the text of the source: active = GI50 up to about 1.1 µM and inactive = higher.

A selection of reference data follows.
Compound: Cc1cccc(C)c1NC(=O)C1C(=O)N(c2c(C)cccc2C)C(=O)/C1=N\N (stereo unspecified)
GI50: > 100 µM (inactive)
--
Compound: Nc1nc(N)c2nnn(C[C@H]3CC[C@@H](CO)C3)c2n1
GI50: > 100 µM (inactive)
--
Compound: COc1cccc2nc3c(C(=O)NCCN(C)C)cccc3nc12
GI50: 10.8 µM (inactive)
--
Compound: NCCSS(=O)(=O)CCN
GI50: > 100 µM (inactive)
--
Compound: COc1ccc(/C=C/C(=O)Oc2ccccc2OC)cc1
GI50: 16.6 µM (inactive)

input: Quote GI50 reported for NC(=S)N/N=C1/C(=O)N(c2ccc(Cl)cc2Cl)C(=O)C(=O)C1c1nc2ccccc2s1 (stereo unspecified) please.
output: > 100 µM (inactive)

input: Quote GI50 reported for O=C1NC(=O)C2C1c1[nH]c3ccccc3c1C1CCCC12 (stereo unspecified) please.
output: 6.55 µM (inactive)

input: Quote GI50 reported for O=c1[nH]c(=O)n(C2CC(O)C(CO)O2)cc1I (stereo unspecified) please.
output: > 82.6 µM (inactive)

input: Quote GI50 reported for CC(=O)C1C(=O)C(=O)N(c2ccc([N+](=O)[O-])cc2[N+](=O)[O-])C1=O (stereo unspecified) please.
output: > 100 µM (inactive)

input: Quote GI50 reported for Nc1nc(-c2ccccc2)cc(-c2ccccc2O)n1 please.
output: 40.7 µM (inactive)

input: Quote GI50 reported for CCOCC(=O)N(C)c1cccc2c3c(n(C)c12)CCCCC3 please.
output: > 100 µM (inactive)
